Give pIC50 for every item shown.
system: HIV-1 RT mutant G190S; experiment: single round infection assay, G190S; format: cell-based; settings: Human immunodeficiency virus 1
One number for each entry, as −log10 of the molar value.

Worked examples follow.
Ask: Give pIC50 for Cc1cc(/C=C/C#N)cc(C)c1Nc1nc(Nc2ccc(C#N)cc2)ncc1N
Reply: 9.40

Ask: Give pIC50 for COc1ccc(Cn2cnc3c(Nc4ccc(C#N)cc4)nc(Nc4c(C)cc(/C=C/C#N)cc4C)nc32)cc1
Reply: 9.43

Ask: Give pIC50 for Cc1cc(/C=C/C#N)cc(C)c1-n1cnc2cnc(Nc3ccc(C#N)cc3)nc21
Reply: 10.00

Ask: Give pIC50 for Cc1cc(/C=C/C#N)cc(C)c1Nc1nc(Nc2ccc(C#N)cc2)c2nc[nH]c2n1
Reply: 9.92

Ask: Give pIC50 for Cc1cc(/C=C/C#N)cc(C)c1Nc1ccnc(Nc2ccc(C#N)cc2)n1
Reply: 9.96

Value sought for every listed molecule: pIC50.
1. Cc1cc(/C=C/C#N)cc(C)c1Nc1ncc(N)c(Nc2ccc(C#N)cc2)n1
2. COc1ccc(Nc2nc(Nc3c(C)cc(/C=C/C#N)cc3C)nc3[nH]cnc23)cc1
3. Cc1cc(/C=C/C#N)cc(C)c1Nc1ncc2ncn(-c3ccc(C#N)cc3)c2n1
4. Cc1cc(/C=C/C#N)cc(C)c1Nc1nc(Nc2ccc(C#N)cc2)ncc1[N+](=O)[O-]

Reply:
1. 9.22
2. 9.77
3. 8.68
4. 9.70

Value sought for every listed molecule: pIC50.
1. Cc1cc(/C=C/C#N)cc(C)c1Nc1nc(Nc2ccc3scnc3c2)c2nc[nH]c2n1
2. CC(=O)c1ccc(Nc2nc(Nc3c(C)cc(/C=C/C#N)cc3C)nc3[nH]cnc23)cc1

Reply:
1: 9.70; 2: 9.46
